Provenance of the data: ChEMBL document CHEMBL1139886

target-system: Dipeptidyl peptidase 4 (Homo sapiens, UniProt P27487)
Sequence (P27487 whole entry): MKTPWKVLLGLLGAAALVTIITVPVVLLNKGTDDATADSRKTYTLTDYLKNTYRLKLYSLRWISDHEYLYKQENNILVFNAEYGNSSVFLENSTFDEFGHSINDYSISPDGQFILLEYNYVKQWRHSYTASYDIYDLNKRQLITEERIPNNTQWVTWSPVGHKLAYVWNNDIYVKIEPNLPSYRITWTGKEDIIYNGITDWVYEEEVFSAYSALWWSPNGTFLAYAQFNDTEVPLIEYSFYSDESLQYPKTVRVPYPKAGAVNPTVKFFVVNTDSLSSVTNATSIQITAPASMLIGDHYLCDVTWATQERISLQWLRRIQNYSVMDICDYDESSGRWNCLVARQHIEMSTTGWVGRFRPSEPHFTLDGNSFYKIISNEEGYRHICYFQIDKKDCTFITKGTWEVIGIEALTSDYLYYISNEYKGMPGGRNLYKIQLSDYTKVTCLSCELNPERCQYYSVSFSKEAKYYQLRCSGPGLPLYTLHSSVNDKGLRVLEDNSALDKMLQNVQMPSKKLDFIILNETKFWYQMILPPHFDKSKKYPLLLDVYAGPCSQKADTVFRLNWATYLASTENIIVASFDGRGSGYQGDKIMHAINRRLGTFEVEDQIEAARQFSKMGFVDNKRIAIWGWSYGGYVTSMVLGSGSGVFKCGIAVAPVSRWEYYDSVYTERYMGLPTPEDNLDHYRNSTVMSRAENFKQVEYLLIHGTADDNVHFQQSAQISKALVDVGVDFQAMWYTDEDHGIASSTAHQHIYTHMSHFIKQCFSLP
test-details: Inhibition of human placental DPP4 at pH 8
measure: IC50 (nM)

[1] C[C@@H](B(O)O)N1CC[C@@H](N)C1=O
[2] C[C@@H](B(O)O)N1CC[C@H](N)C1=O
## Input Of the two listed items, 1 and 2 , which carries the larger IC50 figure? Lab log: write the label of the selected item as the result.
## Output 2
(2: 460 nM, 1: 4.2 nM)

====

Please consider the recorded Ki for Dipeptidyl peptidase 4 (Homo sapiens) in what follows.
measure: Ki (µM)

[a] C[C@@H](B(O)O)N1CC[C@@H](N)C1=O
[b] C[C@@H](B(O)O)N1CC[C@H](N)C1=O
## Input Given the two records a and b , choose the one whose Ki value is lower. Please reply using the label of the selected record.
## Output a
